# PROCEDURE DETAILS: Inhibition of lipoxygenase using linoleic acid as substrate at 0.5 mM after 10 mins preincubation
REPORTED PROPERTY: inhibition (%)

COMPOUND STRUCTURE STRING: CC(C)=CCN(c1ccc(C(=O)O)cc1)S(=O)(=O)c1ccc(C)cc1
REPORTED PROPERTY: inhibition
REPORTED: 98.7

COMPOUND STRUCTURE STRING: CCCN(c1ccc(C(=O)O)cc1)S(=O)(=O)c1ccc(C)cc1
REPORTED PROPERTY: inhibition
REPORTED: 40

COMPOUND STRUCTURE STRING: C=CCN(c1ccc(C(=O)O)cc1)S(=O)(=O)c1ccc(C)cc1
REPORTED PROPERTY: inhibition
REPORTED: 96.2

COMPOUND STRUCTURE STRING: CCOC(=O)c1ccc(N(CC)S(=O)(=O)c2ccc(C)cc2)cc1
REPORTED PROPERTY: inhibition
REPORTED: 97.6

COMPOUND STRUCTURE STRING: Cc1ccc(S(=O)(=O)Nc2ccc(C(=O)O)cc2)cc1
REPORTED PROPERTY: inhibition
REPORTED: 99.4

COMPOUND STRUCTURE STRING: COC(=O)c1ccc(N(C)S(=O)(=O)c2ccc(C)cc2)cc1
REPORTED PROPERTY: inhibition
REPORTED: 88.5

COMPOUND STRUCTURE STRING: CCCCN(c1ccc(C(=O)O)cc1)S(=O)(=O)c1ccc(C)cc1
REPORTED PROPERTY: inhibition
REPORTED: 99.4

COMPOUND STRUCTURE STRING: Cc1ccc(S(=O)(=O)N(Cc2ccccc2)c2ccc(C(=O)O)cc2)cc1
REPORTED PROPERTY: inhibition
REPORTED: 85.1

COMPOUND STRUCTURE STRING: Cc1ccc(S(=O)(=O)N(C(=O)c2ccccc2)c2ccc(C(=O)O)cc2)cc1
REPORTED PROPERTY: inhibition
REPORTED: 99

COMPOUND STRUCTURE STRING: Cc1ccc(S(=O)(=O)N(C/C=C/c2ccccc2)c2ccc(C(=O)OC/C=C/c3ccccc3)cc2)cc1
REPORTED PROPERTY: inhibition
REPORTED: 26.9

COMPOUND STRUCTURE STRING: Cc1ccc(S(=O)(=O)N(CCCl)c2ccc(C(=O)O)cc2)cc1
REPORTED PROPERTY: inhibition
REPORTED: 21.9

COMPOUND STRUCTURE STRING: CCCCCN(c1ccc(C(=O)O)cc1)S(=O)(=O)c1ccc(C)cc1
REPORTED PROPERTY: inhibition
REPORTED: 98.6

COMPOUND STRUCTURE STRING: Cc1ccc(S(=O)(=O)N(C(=O)c2ccc(Cl)cc2)c2ccc(C(=O)O)cc2)cc1
REPORTED PROPERTY: inhibition
REPORTED: 98.1

COMPOUND STRUCTURE STRING: Cc1ccc(S(=O)(=O)Nc2ccc(C(=O)OCC#N)cc2)cc1
REPORTED PROPERTY: inhibition
REPORTED: 97

* * *

# PROCEDURE DETAILS: Inhibition of lipoxygenase using linoleic acid as substrate after 10 mins preincubation
// boundary case: IC50 equal to 70 µM maps to criterion not met; strictly smaller maps to criterion met

COMPOUND STRUCTURE STRING: Cc1ccc(S(=O)(=O)N(C(=O)c2ccc(Cl)cc2)c2ccc(C(=O)O)cc2)cc1
DISCRETE LABEL: criterion not met
//
COMPOUND STRUCTURE STRING: CC(C)=CCN(c1ccc(C(=O)O)cc1)S(=O)(=O)c1ccc(C)cc1
DISCRETE LABEL: criterion met
//
COMPOUND STRUCTURE STRING: Cc1ccc(S(=O)(=O)N(Cc2ccccc2)c2ccc(C(=O)O)cc2)cc1
DISCRETE LABEL: criterion met
//
COMPOUND STRUCTURE STRING: CCOC(=O)c1ccc(N(CC)S(=O)(=O)c2ccc(C)cc2)cc1
DISCRETE LABEL: criterion not met
//
COMPOUND STRUCTURE STRING: Cc1ccc(S(=O)(=O)N(C/C=C/c2ccccc2)c2ccc(C(=O)OC/C=C/c3ccccc3)cc2)cc1
DISCRETE LABEL: criterion not met
//
COMPOUND STRUCTURE STRING: C=CCN(c1ccc(C(=O)O)cc1)S(=O)(=O)c1ccc(C)cc1
DISCRETE LABEL: criterion not met
//
COMPOUND STRUCTURE STRING: Cc1ccc(S(=O)(=O)Nc2ccc(C(=O)OCC#N)cc2)cc1
DISCRETE LABEL: criterion not met
//
COMPOUND STRUCTURE STRING: O=c1cc(-c2ccccc2)oc2cc(O)c(O)c(O)c12
DISCRETE LABEL: criterion met
//
COMPOUND STRUCTURE STRING: Cc1ccc(S(=O)(=O)N(CCCl)c2ccc(C(=O)O)cc2)cc1
DISCRETE LABEL: criterion not met
//
COMPOUND STRUCTURE STRING: CCCCN(c1ccc(C(=O)O)cc1)S(=O)(=O)c1ccc(C)cc1
DISCRETE LABEL: criterion met
//
COMPOUND STRUCTURE STRING: Cc1ccc(S(=O)(=O)Nc2ccc(C(=O)O)cc2)cc1
DISCRETE LABEL: criterion not met
//
COMPOUND STRUCTURE STRING: CCCN(c1ccc(C(=O)O)cc1)S(=O)(=O)c1ccc(C)cc1
DISCRETE LABEL: criterion not met
//
COMPOUND STRUCTURE STRING: Cc1ccc(S(=O)(=O)N(C(=O)c2ccccc2)c2ccc(C(=O)O)cc2)cc1
DISCRETE LABEL: criterion not met
//
COMPOUND STRUCTURE STRING: O=c1c(O)c(-c2ccc(O)c(O)c2)oc2cc(O)cc(O)c12
DISCRETE LABEL: criterion met
//
COMPOUND STRUCTURE STRING: COC(=O)c1ccc(N(C)S(=O)(=O)c2ccc(C)cc2)cc1
DISCRETE LABEL: criterion not met

Value source: ChEMBL document CHEMBL2010755
